// reported Intrinsic activity per item
STUDY SYSTEM: 5-hydroxytryptamine receptor 2C (Homo sapiens) (UniProt P28335)
Sequence (P28335 whole entry): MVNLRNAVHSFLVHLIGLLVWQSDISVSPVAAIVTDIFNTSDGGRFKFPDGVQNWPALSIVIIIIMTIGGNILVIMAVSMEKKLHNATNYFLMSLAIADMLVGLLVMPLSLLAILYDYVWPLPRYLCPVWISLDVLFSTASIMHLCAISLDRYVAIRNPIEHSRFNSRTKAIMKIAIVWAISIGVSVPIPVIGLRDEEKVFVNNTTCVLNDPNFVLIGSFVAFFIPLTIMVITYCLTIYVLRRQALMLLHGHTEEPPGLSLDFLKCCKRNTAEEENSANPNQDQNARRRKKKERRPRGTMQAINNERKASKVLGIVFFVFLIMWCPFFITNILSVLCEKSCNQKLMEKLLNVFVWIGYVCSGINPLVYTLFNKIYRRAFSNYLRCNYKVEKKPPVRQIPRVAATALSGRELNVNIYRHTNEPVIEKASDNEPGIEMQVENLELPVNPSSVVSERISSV
METHOD: Intrinsic activity at human recombinant 5HT2C receptor at 3 uM expressed in HEK293E cells by FLIPR assay relative to control
Assay type: cell-based
# answer = number (no unit)

Consider the following illustrative entries.
- COMPOUND: "O=C1NC2CCNCCN2c2cccc(Cl)c21 (single isomer, unassigned)"
  Intrinsic activity: 1
- COMPOUND: "O=C1NC2CNCCN2c2c(Cl)cccc21 (stereo not given)"
  Intrinsic activity: 0
- COMPOUND: "Cc1cccc2c1C(=O)NC1CNCCN21 (single isomer, unassigned; (+))"
  Intrinsic activity: 1

Prompt: Record request: Intrinsic activity value, item Cc1ccc2c(c1)N1CCNCCC1NC2=O (stereo in doubt; (-)-3c)
Completion: 0.66

Prompt: Record: O=C1NC2CNCCN2c2ccccc21 (single isomer, unassigned)
Completion: 0.96
